assay system: CCR5 (Homo sapiens)
assay protocol: Human CCR5 receptor-ligand binding assay (125I RANTES, CHO-Gα16-hCCR5 cells)
Set-up: expressed in transfected cells
test parameters: specific 125I RANTES binding, CHO-Gα16-hCCR5 cells; read-out: IC50
Catalogue of IC50 values
Answer with a number only, understood to be in nM.

Some solved entries appear below for comparison.
- molecule: "CCCC[C@H]1CN(CC2CCN(C(=O)OC)CC2)C(=O)OC12CCN(C1(C)CCN(C(=O)c3c(C)ncnc3C)CC1)CC2"
  uom: "nM"
  IC50: 46.5
- molecule: "CCCCC1CN(C[C@H]2CC[C@@H](OC)CC2)C(=O)OC12CCN(C1(C)CCN(C(=O)c3c(C)ncnc3C)CC1)CC2 (relative stereo)"
  uom: "nM"
  IC50: 16.2
- molecule: "CCCC[C@H]1CN(C[C@H]2[C@@H]3COC[C@@H]32)C(=O)OC12CCN(C1(C)CCN(C(=O)c3c(C)cc(C(F)F)nc3C)CC1)CC2"
  uom: "nM"
  IC50: 10.8

Return the recorded IC50 value; entry: CCCC[C@H]1CN(CC2COC3OCCC23)C(=O)OC12CCN(C1(C)CCN(C(=O)c3c(C)ncnc3C)CC1)CC2 (single isomer, unassigned)
38

Return the recorded IC50 value; entry: CCCC[C@H]1CN(C[C@H]2[C@@H]3CN(C(=O)OC)C[C@@H]32)C(=O)OC12CCN(C1(C)CCN(C(=O)c3c(C)noc3C(F)(F)F)CC1)CC2
14

Return the recorded IC50 value; entry: CCCC[C@H]1CN(C2CCC(F)(F)CC2)C(=O)OC12CCN(C1(C)CCN(C(=O)c3c(C)ncnc3C)CC1)CC2
19.2

* * *

assay system: CCR5 (Homo sapiens)
assay protocol: Human CCR5 receptor-ligand binding assay (125I RANTES, CHO-Gα16-hCCR5 cells)
Design: expressed in transfected cells
test parameters: specific 125I RANTES binding, CHO-Gα16-hCCR5 cells; read-out: IC50
quantity kind: IC50
Answers without a unit are incomplete; give the number and then its unit.

Some solved entries appear below for comparison.
- cpd smiles: "CCCC[C@H]1CN(C[C@H]2C[C@H]3CC[C@@H](C2)N3C(=O)OC)C(=O)OC12CCN(C1(C)CCN(C(=O)c3c(C)ncnc3C)CC1)CC2"
  assay system: "CCR5 (Homo sapiens)"
  experimental value: "21.2 nM"
- cpd smiles: "CCCC[C@H]1CN(C[C@H]2COCCO2)C(=O)OC12CCN(C1(C)CCN(C(=O)c3c(C)cc(C#N)nc3C)CC1)CC2"
  assay system: "CCR5 (Homo sapiens)"
  experimental value: "17.2 nM"

Lab note: next compound to report on.
Return the recorded IC50 value; entry: CCCC[C@H]1CN(CC2CCN(S(C)(=O)=O)CC2)C(=O)OC12CCN(C1(C)CCN(C(=O)c3c(C)noc3C(F)(F)F)CC1)CC2
38.8 nM

* * *

assay system: CCR5 (Homo sapiens, UniProt P51681)
Sequence (P51681 whole entry, the tested form may be a part): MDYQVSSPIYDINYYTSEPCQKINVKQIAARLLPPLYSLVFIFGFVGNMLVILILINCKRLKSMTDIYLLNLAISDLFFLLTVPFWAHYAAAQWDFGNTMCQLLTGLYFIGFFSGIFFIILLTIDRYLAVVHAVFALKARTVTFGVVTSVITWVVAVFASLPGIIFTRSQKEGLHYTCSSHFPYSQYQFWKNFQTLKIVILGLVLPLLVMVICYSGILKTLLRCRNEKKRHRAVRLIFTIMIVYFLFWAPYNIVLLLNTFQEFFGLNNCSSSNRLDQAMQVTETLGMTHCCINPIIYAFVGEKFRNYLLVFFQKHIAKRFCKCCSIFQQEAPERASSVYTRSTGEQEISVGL
assay protocol: Human CCR5 receptor-ligand binding assay (125I RANTES, CHO-Gα16-hCCR5 cells)
Set-up: expressed in transfected cells
quantity kind: pIC50
// returns pIC50 (minus log10 of molar concentration), number only

Return the recorded pIC50 value; entry: CCCC[C@H]1CN(CC2CCN(CC(F)F)CC2)C(=O)OC12CCN(C1(C)CCN(C(=O)c3c(C)cc(C#N)nc3C)CC1)CC2
7.31

* * *

assay system: CCR5 (Homo sapiens, UniProt P51681)
assay protocol: CCR5-mediated CCF (cell-cell fusion) assay, Hela-R5 / CEM-NKr-CCR5-Luc, luciferase readout
Type: cell-based
Set-up: host or cells: CEM-NKr-CCR5-Luc cells
test parameters: 24 hrs co-culture
Catalogue of pIC50 values
// returns pIC50 (minus log10 of molar concentration), number only

- compound: "CCCCC1CN(CC2CCN(C(C)=O)CC2)C(=O)OC12CCN(C1(C)CCN(C(=O)c3c(C)ncnc3C)CC1)CC2 (stereo not drawn)"
  experimental value: 7.60

Return the recorded pIC50 value; entry: CCCC[C@H]1CN(C[C@H]2C[C@H]3CC[C@@H](C2)N3C(=O)OC)C(=O)OC12CCN(C1(C)CCN(C(=O)c3c(C)ncnc3C)CC1)CC2
8.52

Return the recorded pIC50 value; entry: CCCCC1CN(CC2CCCN(C(C)=O)C2)C(=O)OC12CCN(C1(C)CCN(C(=O)c3c(C)ncnc3C)CC1)CC2 (stereo not drawn)
7.76

Return the recorded pIC50 value; entry: CCCC[C@H]1CN(C[C@H]2COCCO2)C(=O)OC12CCN(C1(C)CCN(C(=O)c3c(C)cc(C#N)nc3C)CC1)CC2
9.00
